Ref: patent US5496844A

# study-system: rat uterus cytoplasm estrogen receptor (Rattus norvegicus, UniProt P06211)
# Construct: the homogenate was centrifuged to give a cytoplasm fraction; from tissue; host or cells: uterus of female SD rats aged 3 to 4 weeks, cytoplasm fraction
# Sequence (P06211 whole entry): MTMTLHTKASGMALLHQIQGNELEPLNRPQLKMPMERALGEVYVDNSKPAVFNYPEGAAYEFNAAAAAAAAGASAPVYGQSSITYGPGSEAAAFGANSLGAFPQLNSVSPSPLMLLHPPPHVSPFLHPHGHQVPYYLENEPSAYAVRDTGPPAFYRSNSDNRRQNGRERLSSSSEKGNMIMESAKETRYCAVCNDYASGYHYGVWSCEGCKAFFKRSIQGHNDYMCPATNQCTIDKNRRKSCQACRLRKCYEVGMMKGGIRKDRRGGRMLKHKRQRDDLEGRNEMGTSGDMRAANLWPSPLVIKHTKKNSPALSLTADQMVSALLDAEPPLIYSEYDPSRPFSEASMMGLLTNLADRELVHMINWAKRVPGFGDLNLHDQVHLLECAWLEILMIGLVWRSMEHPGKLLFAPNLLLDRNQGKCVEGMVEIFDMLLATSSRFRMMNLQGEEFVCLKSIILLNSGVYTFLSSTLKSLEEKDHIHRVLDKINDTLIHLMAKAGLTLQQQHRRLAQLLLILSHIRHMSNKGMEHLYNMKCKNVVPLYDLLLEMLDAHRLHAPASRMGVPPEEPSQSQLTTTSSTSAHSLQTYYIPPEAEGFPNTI
# protocol-text: inhibition of specific binding of [3H]-moxestrol to rat uterus cytoplasm estrogen receptor
# Design: species or system rat (female SD)
# cond: relative to moxestrol as control compound; rat uterus cytoplasm fraction; 4° C., 16 hours; DCC method
measured-attribute: RBA (relative binding affinity, 3H-moxestrol binding inhibiting effect (IC50) ratio) (%)

Examples with answers:
- molecule: "CSc1ccc(-c2c(C)c3cc(O)ccc3n2CCCCCCCCNC(C)C)cc1 [Example 274]"
  study-system: "rat uterus cytoplasm estrogen receptor (Rattus norvegicus, UniProt P06211)"
  numeric-result: 65
- molecule: "CSc1ccc(-c2c(C)c3cc(O)ccc3n2CCCCCCNCc2ccccc2)cc1 [Example 181]"
  study-system: "rat uterus cytoplasm estrogen receptor (Rattus norvegicus, UniProt P06211)"
  numeric-result: 52
- molecule: "CSc1ccc(-c2c(C)c3cc(O)ccc3n2CCCCCCNC(C)(C)C)cc1 [Example 178]"
  study-system: "rat uterus cytoplasm estrogen receptor (Rattus norvegicus, UniProt P06211)"
  numeric-result: 57
- molecule: "O=C(c1ccc(OCCCN2CCCCC2)cc1)n1c(-c2ccc(Sc3ccccc3)cc2)cc2cc(O)ccc21 [Example 239]"
  study-system: "rat uterus cytoplasm estrogen receptor (Rattus norvegicus, UniProt P06211)"
  numeric-result: 73
- molecule: "O=C(c1ccc(OCCN2CCCCC2)cc1)n1c(-c2ccc(Sc3ccccc3)cc2)cc2cc(O)ccc21 [Example 236]"
  study-system: "rat uterus cytoplasm estrogen receptor (Rattus norvegicus, UniProt P06211)"
  numeric-result: 53

P = CSc1ccc(-c2c(C)c3cc(O)ccc3n2CCCCCCNC2CCC2)cc1 [Example 175]
Q = CSc1ccc(-c2c(C)c3cc(O)ccc3n2CCCCCCCCNC(C)(C)C)cc1 [Example 282]
Prompt: Pick one: P or Q . Which has the bigger RBA (relative binding affinity, 3H-moxestrol binding inhibiting effect (IC50) ratio) number? Which one? Tell me its label.
Response: Q
(Q: 114%, P: 60%)
